Experiment: In vivo kinetic parameters in mouse after oral administration (plasma, LC/MS)
Details: mouse, 3.3 mg/kg; Administration of AM80, 3.30 mg/kg (9.4 μmol/kg) oral, ddY male mice, plasma; read-out: t½ (converted)
Experimental: 6-Week old ddY male mice were starved for 12 hours, and then used for the experiment. […] All the samples were used for Le in a volume of 5 μl. […] Each compound was quantified by the absolute calibration curve method.
Value Kind: half-life (min)
One number for each entry, in min.

Quick one: half-life for CC1(C)CCC(C)(C)c2cc(NC(=O)c3ccc(C(=O)O)cc3)ccc21 [Am80] ? 48.6

====

Experiment: In vivo kinetic parameters in mouse after oral administration (plasma, LC/MS)
Settings: mouse, 3.6 mg/kg; Administration of Y616, 3.60 mg/kg (9.4 μmol/kg) oral, ddY male mice, plasma; label = analyte measured; read-out: Tmax
Value Kind: Tmax (min)
Answers are plain numbers, in min.

[
  {
    "Given Smiles": "CC1(C)CCC(C)(C)c2cc(NC(=O)c3ccc(C(=O)O)cc3)ccc21",
    "Unit String": "min",
    "Tmax": 60
  }
]

Proceed to the following item.
Which value of Tmax has been reported for [2H]C([2H])(C(=O)O)C([2H])([2H])c1ccc(C(=O)Nc2ccc3c(c2)C(C)(C)CCC3(C)C)cc1 in the records? 30

====

Would you kindly list AUC for each of these compounds?
Test: In vivo kinetic parameters in mouse after oral administration (plasma, LC/MS)
Details: mouse; Administration of M700, 3.56 mg/kg (9.4 μmol/kg) oral, ddY male mice, plasma; label = analyte measured; read-out: AUC
One number for each entry, in µM·h.

# count of solved cases: 2
[
  {
    "Compound": "CC1(C)CCC(C)(C)c2cc(NC(=O)c3ccc(C(O)CC(=O)O)cc3)ccc21 (stereo not drawn)",
    "Value Kind": "AUC",
    "Measured Number": 0.02
  },
  {
    "Compound": "CC1(C)CCC(C)(C)c2cc(NC(=O)c3ccc(C(=O)O)cc3)ccc21",
    "Value Kind": "AUC",
    "Measured Number": 2.74
  }
]

Reported AUC, compound CC1(C)CCC(C)(C)c2cc(NC(=O)c3ccc(CCC(=O)O)cc3)ccc21 : ____ 1.32

====

Experiment: In vivo kinetic parameters in mouse after oral administration (plasma, LC/MS)
Conditions: mouse, 3.6 mg/kg; Administration of Y616, 3.60 mg/kg (9.4 μmol/kg) oral, ddY male mice, plasma; label = analyte measured; read-out: AUC
Value Kind: AUC (µM·h)
One number for each entry, in µM·h.

[
  {
    "Given Smiles": "[2H]C([2H])(C(=O)O)C([2H])([2H])c1ccc(C(=O)Nc2ccc3c(c2)C(C)(C)CCC3(C)C)cc1",
    "Unit String": "µM·h",
    "AUC": 1.95
  }
]

Okay, next one:
Tell me the measured AUC of CC1(C)CCC(C)(C)c2cc(NC(=O)c3ccc(C(=O)O)cc3)ccc21 , please. 3.48

====

Assay: In vivo kinetic parameters in mouse after oral administration (plasma, LC/MS)
Settings: mouse; Administration of M700, 3.56 mg/kg (9.4 μmol/kg) oral, ddY male mice, plasma; label = analyte measured
Value Kind: Cmax (nM)
Give bare numbers, in nM.

[
  {
    "Compound": "CC1(C)CCC(C)(C)c2cc(NC(=O)c3ccc(C(=O)O)cc3)ccc21",
    "Cmax (nM)": 1060
  },
  {
    "Compound": "CC1(C)CCC(C)(C)c2cc(NC(=O)c3ccc(C(O)CC(=O)O)cc3)ccc21 (stereo not drawn)",
    "Cmax (nM)": 20
  }
]

# Cmax lookup, item CC1(C)CCC(C)(C)c2cc(NC(=O)c3ccc(CCC(=O)O)cc3)ccc21 1620

FYI, the data here is from patent US20140121407A1.
